Hey, just so you know, these numbers are from PubChem BioAssay (NCI).

tested on: NCI/ADR-RES ovarian; test: NCI-60 one-dose screen, 48 h (100 = growth as untreated, 0 = no growth, -100 = all killed); settings: 10 µM unless noted
Compounds without any hit were thinned out: in the full panel of roughly 83,000, 20% have a hit.
OBSERVED_PROPERTY: growth (%)
Numeric answer only, unit % assumed.

MOLECULE | growth (%)
COC(=O)c1c2c(c[n+]([O-])c1C)C(=O)C(NCc1ccccc1)=CC2=O | -14.1

Ask | What does the record list as growth for CN(C)c1ccc(/C=C/C(=O)c2ccc(-n3cc(CN4CCN(c5cc6c(cc5F)c(=O)c(C(=O)O)cn6C5CC5)CC4)nn3)cc2)cc1 ?
Reply | 92.1

Ask | Data request, read-out growth, for COc1ccc(C(=O)C2C(c3ccc(OC)cc3)CN(C)C23C(=O)Nc2ccccc23)cc1 (stereo unspecified)
Reply | 76.7

Ask | I'd like to know its growth. The molecule in question is O=C(NNC(=O)c1ccc(-n2cc(-c3ccccc3)nn2)cc1)Nc1ccccc1
Reply | 107

Ask | // query growth value for entry O=C1/C(=C/c2ccc(Cl)cc2)COc2ccc(O)c(O)c21
Reply | 3.66

Ask | Which value of growth has been reported for CC(O)c1cnc(/C=C2\SC(=S)N(Cc3ccccc3)C2=O)s1 (stereo unspecified) in the records?
Reply | 92.7

Ask | Bench note: what growth did COc1cc(-c2cc(-c3ccc(N(C)C)cc3)nc(N3CCC(O)CC3)c2C#N)cc(OC)c1OC show?
Reply | 14.9

Ask | What does the record list as growth for CN1CCN(c2ccc(C(=O)Nc3cccc(C#Cc4cccc5[nH]nc(N)c45)c3)cc2C(F)(F)F)CC1 ?
Reply | -24.7

Ask | Give the measured growth of O=C(CCCCC1CCSS1)Nc1ncnc2n[nH]c(-c3ccc(Oc4ccccc4)cc3)c12 (stereo unspecified) .
Reply | 89

Ask | growth lookup needed for O=C(CCCCCCN1CC(=O)N2[C@H](c3cc(Br)cs3)c3[nH]c4ccccc4c3C[C@H]2C1=O)NO , thanks.
Reply | 78.9

Ask | Which growth is reported for this molecule? O=C1/C(=C/c2ccc(-c3ccc(Br)cc3)o2)SC(=S)N1CCc1ccc(O)cc1
Reply | 81.7

Ask | Reported growth, molecule CCCCC[C@@H]1Cc2cc(O)c(C(=O)O)c3c2[C@H](C[C@]2(OC[C@@H](CC(=O)[C@@](C)(CC)C(=O)OC)[C@@H]2C)O3)O1 : ____
Reply | 113

###

As shown below, each of these compounds has a reported growth value.
tested on: NCI-H322M lung; assay: NCI-60 one-dose screen, 48 h (100 = growth as untreated, 0 = no growth, -100 = all killed); conditions: 10 µM unless noted
Compounds without any hit were thinned out: in the full panel of roughly 83,000, 20% have a hit.
The answer is to be given in %; state only the numeric part.

Ask | // map O=C(N/N=C/c1ccc(F)cc1)c1ccc(C(F)(F)F)nc1Nc1cccc(C(F)(F)F)c1 to recorded growth (system: NCI-H322M lung)
Reply | -14.5

Ask | Item Cc1nc(-c2ccccc2)cc2c(O)c(C(=O)NN)[nH]c(=O)c12 with NCI-H322M lung - growth?
Reply | 92.7

Ask | Find the measured growth: item COc1cnc2c(c1)C(=O)c1c-2n(CCCNCCO)c(=O)c2ccncc12 , target or system NCI-H322M lung.
Reply | -2.47

Ask | Param readout = growth; param system = NCI-H322M lung; param query = Cc1ccc(-c2nc(N3CCNCC3)c3oc(-c4ccccc4)nc3n2)cc1 ; response: value
Reply | -78.5

Ask | So what growth did CN(C)C1CCN(Cc2ccc(NC(=O)c3cncc(C#Cc4cnc(N)c5ncccc45)c3)cc2C(F)(F)F)CC1 get with NCI-H322M lung?
Reply | 112
